Assay: chemical genetic growth profiling, strain panel (AID 1159580);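 note: tested at 20 µM; growth read once vehicle control cultures reached saturation at 30 °C; lower values mean less growth of the strain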
Settings: S. cerevisiae deletion strains, growth OD, locus YDR159W, strain sac3
In all, about 5,500 compounds went through this assay and about 2,000 (36%) were called active. Roughly 18% stayed inconclusive and do not appear here. Cut-off read from the data, not from the text of the source: active = normalized growth mostly below about 0.91 (no sharp cut-off); inconclusive = no clear call, values can overlap the other calls; inactive = mostly above about 0.92. The list shows a part of the results.
Pick from TRUE for active, FALSE for inactive when you respond.

Previously resolved entries follow.
compound: CC(=O)OCC[N+](C)(C)C
cat: TRUE
//
compound: Cc1[nH]c(C)c(Cl)c(=O)c1Cl
cat: FALSE
//
compound: c1cncc(C2CCCCN2)c1 (stereo unspecified)
cat: FALSE

Problem: Please share the test call associated with CCC(=O)O[C@H]1[C@H](O[C@@H]2[C@@H](C)[C@H](O[C@H]3C[C@@](C)(OC)[C@@H](O)[C@H](C)O3)[C@@H](C)C(=O)O[C@H](CC)[C@@](C)(O)[C@H](O)[C@@H](C)C(=O)[C@H](C)C[C@@]2(C)O)O[C@H](C)C[C@@H]1N(C)C .
Result: TRUE

Problem: Now try O=C(O)c1c2ccccc2cc2ccccc12 .
Result: FALSE

Problem: Similarly, O=C(O)c1cc2ccccc2[nH]1 ?
Result: FALSE

Problem: Here is the next compound: O=C(O)C1(O)C[C@@H](O)C(O)[C@H](O)C1 (stereo partly specified)
Result: FALSE

Problem: Another compound to check: C[N+](C)(C)CCOC(N)=O
Result: FALSE

Problem: // query: NCC1CCC(C(=O)O)CC1 (stereo unspecified)
Result: FALSE

Problem: And then CC(C)(O)[C@@H]1[C@H]2OC(=O)[C@@H]1[C@]1(O)C[C@H]3O[C@]34C(=O)O[C@H]2[C@]14C , what is it?
Result: FALSE

Problem: Also, CC(C[N+](C)(C)C)OC(N)=O (stereo unspecified) please.
Result: FALSE

* * *

Experiment: chemical genetic growth profiling, strain panel (AID 1159580);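 note: tested at 20 µM; growth read once vehicle control cultures reached saturation at 30 °C; lower values mean less growth of the strain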
Settings: S. cerevisiae deletion strains, growth OD, locus YDR335W, strain msn5, hits give low values
The campaign covered roughly 5,500 compounds. About 2,000 (36%) were called active. Inconclusive results (about 18%) are left out. Some of the results follow.
Sorting guide: entries reporting normalized growth beneath 1 go in the Condition met pile, the rest go in the Condition not met pile.

Completed entries (count: 3):
compound: CC(=O)[C@H]1CCC2C3CCC4=CC(=O)CC[C@]4(C)C3CC[C@@]21C (stereo partly drawn)
cat: Condition met

compound: CN(C)c1ccc(C(=C2C=CC(=[N+](C)C)C=C2)c2ccc(N(C)C)cc2)cc1
cat: Condition met

compound: CCCCCCCCCCCCCCCC[N+](C)(C)C
cat: Condition met

Problem: Is it true that normalized growth reported for CCCCCCNC(=O)n1cc(F)c(=O)[nH]c1=O is less than 1?
Result: Condition met

Problem: Query O=C1C=CC(=C(c2ccc(O)cc2)c2ccc(O)cc2)C=C1 next
Result: Condition met

Problem: Now consider C[N+](C)(C)CCOC(N)=O and answer again.
Result: Condition not met

Problem: Ok, now COc1cc2c(cc1OC)Cc1cc(OC)c(OC)cc1Cc1cc(OC)c(OC)cc1C2
Result: Condition not met

Problem: Could you do the same for COc1ccc2c(c1)O[C@@H]1COc3cc(OC)c(OC)cc3[C@@H]1C2=O , please?
Result: Condition met

Problem: Another compound to check: COc1cc2c(cc1OC)[C@@H]1C(=O)c3ccc(OC)c(CC=C(C)C)c3O[C@@H]1CO2
Result: Condition not met
